target: VEGF receptor KDR (Homo sapiens, UniProt P35968); construct: made in house; host or cells: Sf9 cells (Spodoptera frugiperda), recombinant baculovirus; test: In vitro receptor tyrosine kinase assay, VEGF receptor KDR (DELFIA); type: biochemical; conditions: GST-VEGFR2 806-1356, ATP 0.6 uM; read-out: VEGFR IC50
Sequence (P35968 806-1356): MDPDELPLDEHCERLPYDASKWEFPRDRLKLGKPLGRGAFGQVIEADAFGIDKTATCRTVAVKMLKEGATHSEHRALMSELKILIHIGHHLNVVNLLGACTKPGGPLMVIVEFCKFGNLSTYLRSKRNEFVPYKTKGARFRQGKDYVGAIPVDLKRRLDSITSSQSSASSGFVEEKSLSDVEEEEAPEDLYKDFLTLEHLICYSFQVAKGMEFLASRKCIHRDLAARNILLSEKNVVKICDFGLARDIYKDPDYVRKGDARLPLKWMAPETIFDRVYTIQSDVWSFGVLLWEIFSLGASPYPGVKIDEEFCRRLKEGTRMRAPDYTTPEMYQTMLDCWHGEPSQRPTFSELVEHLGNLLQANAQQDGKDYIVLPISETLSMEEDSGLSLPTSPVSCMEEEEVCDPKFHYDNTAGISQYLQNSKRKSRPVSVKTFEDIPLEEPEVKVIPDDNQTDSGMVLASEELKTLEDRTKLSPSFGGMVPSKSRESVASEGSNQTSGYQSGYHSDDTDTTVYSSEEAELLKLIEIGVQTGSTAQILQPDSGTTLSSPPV
Each item that follows carries a reported IC50.

{"columns": ["Smiles notation", "Measured on", "Property label", "Value measured"],
 "data": [
  ["CS(=O)(=O)CCNCc1ccc(-c2cc3nccc(Oc4ccc(NC(=O)c5cnn(-c6ccccc6)c5C(F)(F)F)cc4F)c3s2)cc1", "VEGF receptor KDR (Homo sapiens, UniProt P35968)", "IC50", "> 1000 nM"],
  ["CN(C)CCOC(=O)N1CC=C(c2cc3nccc(Oc4ccc(NC(=O)N5CCN(c6ccccc6)C5=O)cc4F)c3s2)CC1", "VEGF receptor KDR (Homo sapiens, UniProt P35968)", "IC50", "< 250 nM"],
  ["COC[C@H](C)NCc1ccc(-c2cc3nccc(Oc4ccc(NC(=O)N5CCN(c6ccccc6)C5=O)cc4F)c3s2)cc1", "VEGF receptor KDR (Homo sapiens, UniProt P35968)", "IC50", "< 250 nM"],
  ["COCCN(C)C(=O)c1ccc(-c2cc3nccc(Oc4ccc(NC(=O)c5cnn(-c6ccccc6)c5C(F)(F)F)cc4F)c3s2)nc1", "VEGF receptor KDR (Homo sapiens, UniProt P35968)", "IC50", "> 1000 nM"],
  ["CS(=O)(=O)c1ccc(-c2cc3nccc(Oc4ccc(NC(=O)c5cnn(-c6ccccc6)c5C(F)(F)F)cc4F)c3s2)nc1", "VEGF receptor KDR (Homo sapiens, UniProt P35968)", "IC50", "> 1000 nM"]
]}

q: Please look up its IC50: `CN(C)C(=O)c1ccc(-c2cc3nccc(Oc4ccc(NC(=O)c5cnn(-c6ccccc6)c5C(F)(F)F)cc4F)c3s2)cc1`
a: > 1000 nM

q: How about `COCCN(C)Cc1ccc(-c2cc3nccc(Oc4ccc(NC(=O)NNc5ccccc5)cc4F)c3s2)cc1` ?
a: > 1000 nM

q: And what about the molecule `CS(=O)(=O)CCNCc1ccc(-c2cc3nccc(Oc4ccc(NC(=O)N5CCN(c6ccccc6)C5=O)cc4F)c3s2)cc1` ?
a: < 250 nM

###

biological target: VEGF receptor KDR (Homo sapiens, UniProt P35968); construct: made in house; host or cells: Sf9 cells (Spodoptera frugiperda), recombinant baculovirus; assay: In vitro receptor tyrosine kinase assay, VEGF receptor KDR (DELFIA); format: biochemical; conditions: GST-VEGFR2 806-1356, ATP 0.6 uM; read-out: VEGFR IC50
pIC50: −log10 of the molar value.
Below: a set of entries, each annotated with reported pIC50.

Some solved entries appear below for comparison.
{"columns": ["Molecule", "pIC50"],
 "data": [
  ["COCCNCc1ccc(-c2cc3nccc(Oc4ccc(NC(=O)c5cnn(-c6ccccc6)c5C(F)(F)F)cc4F)c3s2)nc1", "< 6.00"],
  ["Cn1cnc(-c2cc3nccc(Oc4ccc(NC(=O)c5cnn(-c6ccccc6)c5)cc4F)c3s2)c1 [drawing 192]", "< 6.00"],
  ["Cn1ccnc1-c1cc2nccc(Oc3ccc(NC(=O)c4cccc(-c5ccccc5)c4F)cc3F)c2s1", "> 6.60"],
  ["Cn1cnc(-c2cc3nccc(Oc4ccc(NC(=O)c5cnn(C)c5C(F)(F)F)cc4F)c3s2)c1", "6.00 to 6.30"],
  ["Cc1c(C(=O)Nc2ccc(Oc3ccnc4cc(-c5cn(C)cn5)sc34)c(F)c2)cnn1-c1ccccc1", "< 6.00"]
]}

q: Recorded pIC50 of `Cn1cnc(-c2cc3nccc(Oc4ccc(NC(=O)c5cnn(-c6ccccc6)c5C(F)(F)F)cc4F)c3s2)c1` , please.
a: < 6.00

q: What do we get for `O=C(O)c1ccc(-c2cc3nccc(Oc4ccc(NC(=O)c5cnn(-c6ccccc6)c5C(F)(F)F)cc4F)c3s2)nc1` ?
a: < 6.00

q: // same read-out, input: `O=C(Nc1ccc(Oc2ccnc3cc(-c4ccc(CNC5CC5)cc4)sc23)c(F)c1)N1CCN(c2ccccc2)C1=O`
a: > 6.60

###

target: VEGF receptor KDR (Homo sapiens); construct: made in house; host or cells: Sf9 cells (Spodoptera frugiperda), recombinant baculovirus; test: In vitro receptor tyrosine kinase assay, VEGF receptor KDR (DELFIA); type: biochemical; conditions: GST-VEGFR2 806-1356, ATP 0.6 uM; read-out: VEGFR IC50
pIC50: −log10 of the molar value.
Catalogue of pIC50 readings, one per entry.

{"columns": ["Smiles notation", "Property label", "Value measured"],
 "data": [
  ["Cn1ccnc1-c1cc2nccc(Oc3ccc(NC(=O)c4ncc(-c5ccccc5)s4)cc3F)c2s1", "pIC50", "< 6.00"],
  ["C=CCN1CCN(C(=O)Nc2ccc(Oc3ccnc4cc(-c5cn(CC)cn5)sc34)c(F)c2)C1=O", "pIC50", "> 6.60"],
  ["O=C(Nc1ccc(Oc2ccnc3cc(-c4cnn(C5CCNCC5)c4)sc23)c(F)c1)N1CCN(c2ccccc2)C1=O", "pIC50", "> 6.60"],
  ["CN(C)C(=O)c1ccc(-c2cc3nccc(Oc4ccc(NC(=O)c5cnn(-c6ccc(F)cc6)c5C(F)(F)F)cc4F)c3s2)cc1", "pIC50", "< 6.00"],
  ["CCOC(=O)c1ccc(-c2cc3nccc(Oc4ccc(NC(=O)c5cnn(-c6ccccc6)c5C(F)(F)F)cc4F)c3s2)cc1", "pIC50", "< 6.00"],
  ["COCCNC(=O)c1ccc(-c2cc3nccc(Oc4ccc(NC(=O)c5cnn(-c6ccccc6)c5C(F)(F)F)cc4F)c3s2)nc1", "pIC50", "< 6.00"],
  ["CN(C)C(=O)c1ccc(-c2cc3nccc(Oc4ccc(NC(=O)N5CCN(c6ccccc6)C5=O)cc4F)c3s2)cc1", "pIC50", "> 6.60"]
]}

q: Suppose we examine the compound `COCCNCc1cccc(-c2cc3nccc(Oc4ccc(NC(=O)N5CCN(c6ccccc6)C5=O)cc4F)c3s2)c1` ; what pIC50 value has been reported?
a: > 6.60

###

molecular target: c-Met (Homo sapiens); construct: endogenous in cells; test: c-Met phosphorylation direct ELISA in MKN45 cells; conditions: 3 h treatment
Sequence (P08581 25-1390): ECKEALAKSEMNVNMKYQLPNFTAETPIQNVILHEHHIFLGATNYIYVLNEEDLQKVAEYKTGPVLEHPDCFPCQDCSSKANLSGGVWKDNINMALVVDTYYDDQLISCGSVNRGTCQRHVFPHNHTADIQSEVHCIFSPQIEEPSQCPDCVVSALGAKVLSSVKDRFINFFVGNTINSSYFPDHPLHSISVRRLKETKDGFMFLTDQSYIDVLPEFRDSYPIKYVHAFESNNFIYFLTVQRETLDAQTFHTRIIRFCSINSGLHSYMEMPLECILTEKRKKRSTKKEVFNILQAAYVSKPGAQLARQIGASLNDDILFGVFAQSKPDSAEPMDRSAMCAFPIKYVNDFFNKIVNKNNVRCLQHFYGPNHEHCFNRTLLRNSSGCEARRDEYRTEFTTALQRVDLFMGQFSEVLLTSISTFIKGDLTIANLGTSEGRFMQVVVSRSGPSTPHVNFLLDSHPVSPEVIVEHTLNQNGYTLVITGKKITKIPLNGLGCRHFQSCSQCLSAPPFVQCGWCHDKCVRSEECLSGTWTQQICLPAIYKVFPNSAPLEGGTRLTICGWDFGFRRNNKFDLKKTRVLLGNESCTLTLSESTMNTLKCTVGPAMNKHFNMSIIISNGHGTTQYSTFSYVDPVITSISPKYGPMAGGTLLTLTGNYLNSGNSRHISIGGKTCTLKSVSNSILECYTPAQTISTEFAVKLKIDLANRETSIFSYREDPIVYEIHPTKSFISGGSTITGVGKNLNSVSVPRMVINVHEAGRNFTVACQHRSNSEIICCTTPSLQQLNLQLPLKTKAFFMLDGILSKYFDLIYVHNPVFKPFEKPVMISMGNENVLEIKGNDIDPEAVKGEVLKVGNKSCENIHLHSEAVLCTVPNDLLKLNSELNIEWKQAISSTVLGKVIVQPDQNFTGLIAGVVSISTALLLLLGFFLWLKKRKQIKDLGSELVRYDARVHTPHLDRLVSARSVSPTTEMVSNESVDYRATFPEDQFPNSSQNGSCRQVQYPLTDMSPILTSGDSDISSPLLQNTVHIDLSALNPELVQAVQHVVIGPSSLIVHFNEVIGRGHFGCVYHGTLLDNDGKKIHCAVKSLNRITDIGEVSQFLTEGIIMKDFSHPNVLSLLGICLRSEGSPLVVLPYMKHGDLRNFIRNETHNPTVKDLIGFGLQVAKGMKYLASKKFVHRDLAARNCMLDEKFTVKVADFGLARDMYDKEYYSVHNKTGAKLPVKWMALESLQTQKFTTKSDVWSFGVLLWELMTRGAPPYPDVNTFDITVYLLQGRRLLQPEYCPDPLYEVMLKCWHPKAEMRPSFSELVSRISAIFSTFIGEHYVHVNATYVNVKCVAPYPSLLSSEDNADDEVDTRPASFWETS
Property label: IC50

{"columns": ["Smiles notation", "IC50"],
 "data": [
  ["CN(C)C(=O)c1ccc(-c2cc3nccc(Oc4ccc(NC(=O)N5CCN(c6ccccc6)C5=O)cc4F)c3s2)cc1", "< 0.25 µM"],
  ["O=C(NNC(=O)c1ccccc1)Nc1ccc(Oc2ccnc3cc(C4=CCNCC4)sc23)c(F)c1", "> 1 µM"],
  ["Cn1cnc(-c2cc3nccc(Oc4ccc(NC(=O)c5cnn(-c6ccccc6)c5C(F)(F)F)cc4F)c3s2)c1", "0.5 to 1 µM"],
  ["COCCNCc1cccc(-c2cc3nccc(Oc4ccc(NC(=O)N5CCN(c6ccccc6)C5=O)cc4F)c3s2)c1", "< 0.25 µM"],
  ["COCCN(C)Cc1ccc(-c2cc3nccc(Oc4ccc(NC(=O)NNc5ccccc5)cc4F)c3s2)cc1", "< 0.25 µM"],
  ["COCCNCc1ccc(-c2cc3nccc(Oc4ccc(NC(=O)c5cnn(-c6ccccc6)c5C(F)(F)F)cc4F)c3s2)nc1", "0.25 to 0.5 µM"]
]}

q: For the record `CS(=O)(=O)c1ccc(-c2cc3nccc(Oc4ccc(NC(=O)N5CCN(c6ccccc6)C5=O)cc4F)c3s2)cc1` , what value of IC50 is listed for c-Met (Homo sapiens)?
a: < 0.25 µM

q: Follow-up item: `O=C(Nc1ccc(Oc2ccnc3cc(-c4ccc(CNC5CC5)cc4)sc23)c(F)c1)N1CCN(c2ccccc2)C1=O`
a: < 0.25 µM

###

The following molecules are listed with their measured pIC50 values.
target: recombinant human c-Met/HGF receptor (Homo sapiens); assay: In vitro receptor tyrosine kinase assay, c-Met/HGF receptor (DELFIA)
pIC50: −log10 of the molar value.

{"columns": ["Smiles notation", "Property label", "Value measured"],
 "data": [
  ["O=C(Nc1ccc(Oc2ccnc3cc(-c4ccc(CNC5CC5)cc4)sc23)c(F)c1)N1CCN(c2ccccc2)C1=O", "pIC50", "> 6.60"],
  ["COC[C@H](C)NCc1ccc(-c2cc3nccc(Oc4ccc(NC(=O)N5CCN(c6ccccc6)C5=O)cc4F)c3s2)cc1", "pIC50", "> 6.60"],
  ["CN(C)CCOC(=O)N1CC=C(c2cc3nccc(Oc4ccc(NC(=O)N5CCN(c6ccccc6)C5=O)cc4F)c3s2)CC1", "pIC50", "> 6.60"],
  ["CN(C)CC(=O)N1CC=C(c2cc3nccc(Oc4ccc(NC(=O)N5CCN(c6ccccc6)C5=O)cc4F)c3s2)CC1", "pIC50", "> 6.60"],
  ["O=C(Nc1ccc(Oc2ccnc3cc(-c4cccc[n+]4[O-])sc23)c(F)c1)N1CCN(c2ccc(F)cc2)C1=O", "pIC50", "> 6.60"],
  ["CN(C)C(=O)c1ccc(-c2cc3nccc(Oc4ccc(NC(=O)c5cnn(-c6ccc(F)cc6)c5C(F)(F)F)cc4F)c3s2)cc1", "pIC50", "> 6.60"]
]}

q: Look up pIC50: `COCCNCc1cccc(-c2cc3nccc(Oc4ccc(NC(=O)N5CCN(c6ccccc6)C5=O)cc4F)c3s2)c1`
a: > 6.60

q: Next entry: `O=C(O)c1ccc(-c2cc3nccc(Oc4ccc(NC(=O)c5cnn(-c6ccccc6)c5C(F)(F)F)cc4F)c3s2)nc1`
a: > 6.60

q: // repeat for `CS(=O)(=O)c1ccc(-c2cc3nccc(Oc4ccc(NC(=O)c5cnn(-c6ccccc6)c5C(F)(F)F)cc4F)c3s2)nc1` and report
a: > 6.60

q: What would you report for `COCCNCc1ccc(-c2cc3nccc(Oc4ccc(NC(=O)c5cnn(-c6ccccc6)c5C(F)(F)F)cc4F)c3s2)nc1` ?
a: > 6.60

q: What do we get for `CS(=O)(=O)c1ccc(-c2cc3nccc(Oc4ccc(NC(=O)N5CCN(c6ccccc6)C5=O)cc4F)c3s2)cc1` ?
a: 6.30 to 6.60
